method.description: Urinary recovery of 5-FU in mice dosed with 5-FU or the succinate linked nucleoside
Assay type: in vivo
setup.conditions: mouse, urine, po, 5 mg/kg, 5 mg/kg equivalent 5-FU, no predose, Table 2, read-out: Recovery 5-FU (%)
observation.type: dose excreted (%)
Express your answer in %, writing the number without its unit.

Inquiry: // returns reported dose excreted for input `O=c1[nH]cc(F)c(=O)[nH]1`
Reply text: 0

====

method.description: Urinary recovery of 5-FU in rats for 5-FU and various 5-FU containing nucleosides
Type: in vivo
setup.conditions: rat, urine, po, 25 mg/kg, p.o., 5-FU 25 mg/kg, 5-EU predose 0.03 mg/kg, read-out: % 5-FU Recovery 0-24 hr Urine (Average of Two Experiments)
observation.type: dose excreted at 24 h

Inquiry: Which measured dose excreted at 24 h value corresponds to `O=c1[nH]cc(F)c(=O)[nH]1` ?
Reply text: 43 to 63%

====

method.description: Urinary recovery of 5-FU in rats for 5-FU and various 5-FU containing nucleosides
Format: in vivo
setup.conditions: rat, urine, po, 5 mg/kg, p.o., 5-FU 5 mg/kg, 5-EU predose 2 mg/kg, read-out: % 5-FU Recovery 0-24 hr Urine (Average of Two Experiments)
observation.type: dose excreted at 24 h

Inquiry: Which dose excreted at 24 h value is on record for `O=c1[nH]cc(F)c(=O)[nH]1` ?
Reply text: 52%

====

method.description: In vivo antitumor testing with s.c. murine Colon 38 carcinoma in C57BL/6 female mice
setup.conditions: mouse, in vivo, sc; mice with s.c. Colon 38; dose of the linked compound, once/day for 9 days; read-out: toxic at doses
observation.type: MTD

Inquiry: Value lookup for MTD; key = `C#Cc1cn([C@H]2C[C@H](OC(=O)CCC(=O)O[C@H]3C[C@H](n4cc(F)c(=O)[nH]c4=O)O[C@@H]3CO)[C@@H](CO)O2)c(=O)[nH]c1=O`
Reply text: > 17.9 mg/kg

====

method.description: Urinary recovery of 5-FU in rats for 5-FU and various 5-FU containing nucleosides
Type: in vivo
setup.conditions: rat, urine, po, 5 mg/kg, p.o., 5-FU 5 mg/kg, no predose, read-out: % 5-FU Recovery 0-24 hr Urine (Average of Two Experiments)
observation.type: dose excreted at 24 h

Inquiry: Bench note: what dose excreted at 24 h did `O=c1[nH]cc(F)c(=O)[nH]1` show?
Reply text: < 5%

====

method.description: Urinary recovery of 5-FU in mice dosed with 5-FU or the succinate linked nucleoside
Assay type: in vivo
setup.conditions: mouse, urine, po, 5 mg/kg, 5 mg/kg equivalent 5-FU, 5-EU predose 2 mg/kg, Table 2, read-out: Recovery 5-FU (%)
observation.type: dose excreted (%)
Give just the numeric value; % need not be written.

Inquiry: What value of dose excreted has been recorded for this entry: O=c1[nH]cc(F)c(=O)[nH]1 [Example 5-FU, 5-fluorouracil]
Reply text: 51

Data origin, for the record: patent US5843917A
